ASSAY EXPLANATION: Oral bioavailability in rat at 10 mg/kg
Type: ADME, organism-based
MEASUREMENT CONDITIONS: in vivo
ASSAY READOUT: bioavailability (%)

COMPOUND	UNITS LABEL	VALUE OBSERVED
O=C(N[C@H]1C[C@@H](c2ccccc2)CN(CC(F)(F)F)C1=O)c1ccc2c(c1)C[C@@]1(C2)C(=O)Nc2ncccc21	%	100

###

ASSAY EXPLANATION: Half life in rat at 2 mg/kg, iv
Type: ADME, organism-based
MEASUREMENT CONDITIONS: in vivo

COMPOUND	half-life, h
O=C(N[C@H]1C[C@@H](c2ccccc2)CN(CC(F)(F)F)C1=O)c1ccc2c(c1)C[C@@]1(C2)C(=O)Nc2ncccc21	1.2

###

TARGET ENTITY: Calcitonin-gene-related peptide receptor, CALCRL/RAMP1 (Homo sapiens, UniProt O60894+Q16602)
Sequence (O60894 whole entry): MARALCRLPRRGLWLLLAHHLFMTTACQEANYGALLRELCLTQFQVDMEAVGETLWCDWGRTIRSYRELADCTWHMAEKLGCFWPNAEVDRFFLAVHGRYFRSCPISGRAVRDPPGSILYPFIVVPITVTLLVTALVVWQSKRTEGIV
Sequence (Q16602 whole entry): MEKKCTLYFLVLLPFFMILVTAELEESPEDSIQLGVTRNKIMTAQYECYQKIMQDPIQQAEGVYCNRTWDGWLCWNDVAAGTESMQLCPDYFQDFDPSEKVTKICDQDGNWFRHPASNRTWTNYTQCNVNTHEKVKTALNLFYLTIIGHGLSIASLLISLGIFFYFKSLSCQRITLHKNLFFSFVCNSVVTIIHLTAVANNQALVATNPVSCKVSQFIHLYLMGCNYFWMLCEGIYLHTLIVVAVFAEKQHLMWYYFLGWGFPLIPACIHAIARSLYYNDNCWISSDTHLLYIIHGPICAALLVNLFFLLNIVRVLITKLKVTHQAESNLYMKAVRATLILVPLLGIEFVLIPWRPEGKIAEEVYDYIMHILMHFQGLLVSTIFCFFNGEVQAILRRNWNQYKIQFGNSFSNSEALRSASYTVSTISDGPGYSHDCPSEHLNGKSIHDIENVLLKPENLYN
ASSAY EXPLANATION: Displacement of 125I-hCGRP from human CLR/RAMP1 receptor expressed from HEK293 cell membrane coexpressing CLR/RAMP1 assessed as dissociation constant
Listed next: entries and their corresponding Ki.
ASSAY READOUT: Ki (nM)

COMPOUND	VALUE OBSERVED
O=C(N[C@@H]1CCCCNC1=O)c1ccc2c(c1)C[C@]1(C2)C(=O)Nc2ncccc21	850
O=C(N[C@@H]1CC[C@@H](c2ccccc2)CN(CC(F)(F)F)C1=O)c1ccc2c(c1)C[C@@]1(C2)C(=O)Nc2ncccc21	15
O=C(N[C@@H]1CCCCNC1=O)c1ccc2c(c1)C[C@@]1(C2)C(=O)Nc2ncccc21	160
O=C(N[C@@H]1C[C@@H](c2ccccc2)N(CC(F)(F)F)C1=O)c1ccc2c(c1)C[C@@]1(C2)C(=O)Nc2ncccc21	1100
O=C(N[C@H]1C[C@H](c2ccccc2)CN(CC(F)(F)F)C1=O)c1ccc2c(c1)C[C@@]1(C2)C(=O)Nc2ncccc21	25
CC(C)CN1C(=O)[C@H](NC(=O)c2ccc3c(c2)C[C@@]2(C3)C(=O)Nc3ncccc32)C[C@H]1c1ccccc1	570
CC(C)CN1C(=O)[C@H](NC(=O)c2ccc3c(c2)C[C@]2(C3)C(=O)Nc3ncccc32)C[C@@H]1c1ccccc1 (mixture of isomers)	200
O=C(N[C@H]1CCCN(CC(F)(F)F)C1=O)c1ccc2c(c1)C[C@@]1(C2)C(=O)Nc2ncccc21	680
O=C(N[C@H]1C[C@H](c2ccccc2)N(CC(F)(F)F)C1=O)c1ccc2c(c1)C[C@@]1(C2)C(=O)Nc2ncccc21	4.9
O=C(N[C@@H]1C[C@H](c2ccccc2)CN(CC(F)(F)F)C1=O)c1ccc2c(c1)C[C@@]1(C2)C(=O)Nc2ncccc21	1000
CC(C)CN1C(=O)[C@H](NC(=O)c2ccc3c(c2)C[C@]2(C3)C(=O)Nc3ncccc32)C[C@H]1c1ccccc1 (mixture of isomers)	890
O=C(N[C@@H]1C[C@@H](c2ccccc2)CN(CC(F)(F)F)C1=O)c1ccc2c(c1)C[C@@]1(C2)C(=O)Nc2ncccc21	220
O=C(N[C@H]1CCCCNC1=O)c1ccc2c(c1)C[C@]1(C2)C(=O)Nc2ncccc21	6100
O=C(N[C@@H]1C[C@@H](c2ccccc2)CCNC1=O)c1ccc2c(c1)C[C@@]1(C2)C(=O)Nc2ncccc21 (mixture of isomers)	600
O=C(N[C@@H]1CCC[C@H](c2ccccc2)NC1=O)c1ccc2c(c1)C[C@@]1(C2)C(=O)Nc2ncccc21 (mixture of isomers)	1800
O=C(N[C@@H]1CC[C@@H](c2cccc(F)c2F)CN(CC(F)(F)F)C1=O)c1ccc2c(c1)C[C@@]1(C2)C(=O)Nc2ncccc21	5.6
